format: physicochemical; parameters: key: 1 = fibrils present; 0 non-fibrillar structures; settings: Fig S10 panel D
Reported TEM 2cat values are given for each entry in this list.
ENDPOINT_LABEL: TEM 2cat

1) KIKIQINMAQ	1
2) QCKFKFQF	1
3) KNDKND	0
4) KIKQIINMWQ	1
5) RGECKFKFQF	1
6) KIKIQINM	1
7) HRRHFRHKITKKK	0
8) CKFKFQF	1
9) SISISRRI	0
10) QCKIKIQI	1
11) CKWKWQW	1
12) HGDKCHGDKC	0
13) KVKGVGK	0
14) KVKVKVQV	0
15) HLHLPLL	0
16) KFKFQFNM	1
17) KFKFQFNMW	1
18) KKFQKKFQ	0
19) KIKIQINMWA	1
20) KIKIQIAMWQ	1
21) KIKIQIN	1
22) QCKIKQII	1
23) HGEHGE	0
24) HGEHGEHGE	0
25) KAKQAANMWQ	0
26) QCKIKIQINMWQ	1
27) KYKGAIIGNIK	0
28) CKFKFQFNMWQ	1
29) QCKFKQFF	1
30) KFKQFFNMWQ	0
31) KIKIQINMWQ	1
32) KYKYQY	0
33) KFKFQF	0
34) KIKQIIN	0
35) MKFKFQF	1
36) CETMYDKILKNLSRSR	0

* * *

assay: Turbidity, derived count rate of scattered light; assay type: physicochemical; conditions: derived count rate of scattered light; mean, std deviation in next column
Reported Zeta Count Rate / kcps values are given for each entry in this list.
ENDPOINT_LABEL: Zeta Count Rate / kcps (kcps)

1) KIKIQIC [TM112 / CN11]	980.7
2) QCKFKQFFNM [CK11]	10384.7
3) QCKFKFQFNMWQ [CK7]	1208
4) QCKIKQIINMWQ [reference compound]	2602
5) MKIKIQINMWQ [TM52]	1475
6) QCKAKAQA [CK24]	1319.1
7) KLKLQLL [TG4 / (KM2)]	72.67
8) QCKIKIQI [CK3]	12426.83333

* * *

Reported Log10 Inf. rel. to EF-C values are given for each entry in this list.
test system: HIV-1 infection of TZM-bl cells; experiment: HIV-1 infectivity enhancement assay, β-galactosidase luminescence; format: cell-based; conditions: log10 of HIV-1 infection of TZM-bl cells relative to EF-C; Fig S15 source data; asymmetric std dev errors
ENDPOINT_LABEL: Log10 Inf. rel. to EF-C

1) CKAKAQANMWQ [BL8]	-1.359
2) KYKYQY [KB1]	-1.9887
3) HIHIQIC [CN12]	-0.5672
4) KVKVQVVV [TG8]	-1.455

* * *

Reported Count Rate / kcps values are given for each entry in this list.
test: Turbidity, derived count rate of scattered light; assay type: physicochemical; settings: derived count rate of scattered light at 633 nm, 173°, from zeta-potential measurement, 0.1 mg/mL in 1 mM KCl after 1 d at 1 mg/mL in PBS; turbidity / microscopic aggregation; mean of triplicate
ENDPOINT_LABEL: Count Rate / kcps (kcps)

1. RGDCKFKFQF	1338
2. KAKAQANM	43
3. KIKQII	122
4. EIEIQINM	134
5. KVKVQVVV	163
6. KAKQAANMWQ	690
7. EIKIQINM	2816
8. KIKIKIQI	999
9. KIKIQIW	145
10. LASLIYR [reference compound]	105
11. CRFRVPF	74
12. HHHHKAKAKAKAYYYY	241
13. GQTVTK [reference compound]	34
14. CEFEFQFNMWQ	186
15. RFWFWFW	30037.33333
16. KIKIQIMWNQ	1887
17. NMWQKAKAQA	242
18. CKIKQIIRGD	3495
19. IIIQGK [reference compound]	10
20. RCELARTLKR [reference compound]	78
21. CRLRVGVS	35.07
22. GYVIIK [reference compound]	30
23. KAKAKAQA	77
24. HHHHEIEIEIEI	103
25. CSISIQINM	3291
26. KFKFKFQF	1036
27. ISKLEYSNFSVRY [reference compound]	7807
28. KVKVQVV	28
29. CKYKYQY	1061
30. HHHHKIKIQINMYYYY	5659
31. KLKLQLL	73
32. HHHHKIKIKIKIYYYY	12793
33. CEIEIQINMWQ	1570

FYI, the data here is from paper PMC10447463.
